molecular target: pooled human IgG
experimental readout: Enzyme Activity Endpoint Assay: Fab′2 (ng/µL)
Number in ng/µL, nothing else.

So what does the record say about Enzyme Activity Endpoint Assay: Fab′2 for PRT-279 (protein) MVTSVWTKGVTPPTDFIYGEDVLHAPYKAGQGWYDITKLFNGKDNLLCGAATAGNMLHWWFDQNKEQIENYLKKHPEKQKIIFNNQELFDLKAAIDTKDSQLDSKLFEYFLEKAFPYLSTKHLGVFPDHVIDMFINGYRLSLTNHGPTPVKRGSKDKRGGIFDAVFTRGVQSKLLTNRHDLKNKTLKEISDLIKQELTEGKALGISHTYANVRINHVINLWGADFDAEGNLEAIAVTDSDTNASIGMKKYFVGVNSSGKVAISAKEIEEDNIGAQVLGLFTLSTGQDIWNQTN ? 574
